- targetOfAssay: h-e5’NT (Homo sapiens)
- Sequence (P21589 27-574): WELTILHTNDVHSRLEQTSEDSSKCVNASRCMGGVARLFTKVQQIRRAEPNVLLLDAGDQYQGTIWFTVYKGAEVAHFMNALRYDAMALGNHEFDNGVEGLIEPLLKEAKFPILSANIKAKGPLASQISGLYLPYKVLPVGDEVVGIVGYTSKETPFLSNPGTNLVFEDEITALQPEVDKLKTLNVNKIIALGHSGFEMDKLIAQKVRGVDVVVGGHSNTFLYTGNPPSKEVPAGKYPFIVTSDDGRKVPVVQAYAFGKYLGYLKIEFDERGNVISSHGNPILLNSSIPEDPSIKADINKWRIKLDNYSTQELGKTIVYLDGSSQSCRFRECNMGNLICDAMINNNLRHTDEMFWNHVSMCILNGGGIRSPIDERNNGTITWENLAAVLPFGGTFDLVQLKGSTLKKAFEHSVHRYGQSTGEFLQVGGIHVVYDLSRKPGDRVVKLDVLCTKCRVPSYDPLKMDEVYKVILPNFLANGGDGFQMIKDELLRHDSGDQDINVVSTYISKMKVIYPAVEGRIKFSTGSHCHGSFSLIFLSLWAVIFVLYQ
- assayProcedure: h-e5’NT activity assay
- Format: biochemical
- testParameters: read-out: % Inhibition h-e5’NT
Mark no for inhibition at 100 µM values under 70%, and yes for everything at or above.

Consider the following illustrative entries.
{"compound": "Cc1ccc(F)cc1NC(=O)c1ccc2ncccc2c1 [Compound 4l]", "classification": "no"}
{"compound": "O=C(Nc1ccccn1)c1ccc2ncccc2c1 [Compound 4g, N-(pyridin-2-yl)quinoline-6-carboxamide]", "classification": "yes"}
{"compound": "O=C(Nc1ccccc1I)c1ccc2ncccc2c1 [Compound 4h, N-(2-iodophenyl)quinoline-6-carboxamide]", "classification": "yes"}
{"compound": "Cc1ccc(CNC(=O)c2ccc3ncccc3c2)cc1 [Compound 4c]", "classification": "no"}
{"compound": "O=C(NCc1ccc(F)cc1)c1ccc2ncccc2c1 [Compound 4b]", "classification": "no"}

# bool: inhibition at 100 µM of O=C(Nc1c(F)cccc1F)c1ccc2ncccc2c1 [Compound 4d] >= 70%
no

# bool: inhibition at 100 µM of O=C(NCc1ccc(Cl)cc1Cl)c1ccc2ncccc2c1 [Compound 4j] >= 70%
yes

# bool: inhibition at 100 µM of O=C(Nc1ccc(F)cc1F)c1ccc2ncccc2c1 [Compound 4e] >= 70%
no

# bool: inhibition at 100 µM of COc1ccc(CNC(=O)c2ccc3ncccc3c2)c(OC)c1 [Compound 4i] >= 70%
no

# bool: inhibition at 100 µM of O=C(Nc1ccc(I)cc1)c1ccc2ncccc2c1 [Compound 4k, N-(4-Iodophenyl)quinoline-6-carboxamide] >= 70%
no

====

- targetOfAssay: h-NPP1 (Homo sapiens)
- Sequence (P22413 whole entry): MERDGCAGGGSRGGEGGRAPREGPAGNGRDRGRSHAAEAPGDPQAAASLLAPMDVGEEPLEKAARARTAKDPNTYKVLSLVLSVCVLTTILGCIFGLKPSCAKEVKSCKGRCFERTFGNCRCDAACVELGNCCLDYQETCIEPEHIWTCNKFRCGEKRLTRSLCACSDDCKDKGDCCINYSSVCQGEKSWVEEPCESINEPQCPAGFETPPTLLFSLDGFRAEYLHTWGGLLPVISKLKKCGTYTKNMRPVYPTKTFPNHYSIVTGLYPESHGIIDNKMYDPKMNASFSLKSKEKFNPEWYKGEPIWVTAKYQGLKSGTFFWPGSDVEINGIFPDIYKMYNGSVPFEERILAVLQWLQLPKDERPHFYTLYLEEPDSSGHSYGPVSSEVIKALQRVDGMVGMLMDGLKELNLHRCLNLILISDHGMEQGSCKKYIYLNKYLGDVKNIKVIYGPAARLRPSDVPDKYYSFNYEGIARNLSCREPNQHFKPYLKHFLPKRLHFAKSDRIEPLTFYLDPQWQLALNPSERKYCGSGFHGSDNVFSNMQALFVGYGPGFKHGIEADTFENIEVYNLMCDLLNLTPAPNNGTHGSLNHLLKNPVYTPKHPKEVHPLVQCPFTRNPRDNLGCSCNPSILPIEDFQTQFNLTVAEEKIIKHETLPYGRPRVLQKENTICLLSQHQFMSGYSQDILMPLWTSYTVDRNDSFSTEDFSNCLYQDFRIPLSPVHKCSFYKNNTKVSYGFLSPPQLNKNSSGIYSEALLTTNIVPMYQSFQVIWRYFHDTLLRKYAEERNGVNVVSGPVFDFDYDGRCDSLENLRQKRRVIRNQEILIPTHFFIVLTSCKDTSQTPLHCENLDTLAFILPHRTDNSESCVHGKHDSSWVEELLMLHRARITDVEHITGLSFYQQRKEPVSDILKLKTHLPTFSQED
- assayProcedure: h-NPP1 activity assay
- Assay type: biochemical
- testParameters: read-out: % Inhibition h-NPP1
So basically, the class depends on measured inhibition at 100 µM, and the ranges are low (below 40%), middle (40% to below 50%), high (50% or more)

Consider the following illustrative entries.
{"compound": "O=C(NCc1ccc(Cl)cc1)c1ccc2ncccc2c1", "classification": "high"}
{"compound": "O=C(Nc1ccc(I)cc1)c1ccc2ncccc2c1 [Compound 4k, N-(4-Iodophenyl)quinoline-6-carboxamide]", "classification": "high"}
{"compound": "O=C(Nc1ccccc1I)c1ccc2ncccc2c1 [Compound 4h, N-(2-iodophenyl)quinoline-6-carboxamide]", "classification": "low"}

Which category does the recorded inhibition at 100 µM put O=C(Nc1c(F)cccc1F)c1ccc2ncccc2c1 in?
high

Which category does the recorded inhibition at 100 µM put Cc1ccc(F)cc1NC(=O)c1ccc2ncccc2c1 in?
low

Which category does the recorded inhibition at 100 µM put O=C(NCc1ccc(F)cc1)c1ccc2ncccc2c1 in?
middle

Which category does the recorded inhibition at 100 µM put Cc1ccc(CNC(=O)c2ccc3ncccc3c2)cc1 in?
middle

Which category does the recorded inhibition at 100 µM put O=C(NCc1ccc(Cl)cc1Cl)c1ccc2ncccc2c1 in?
high

Which category does the recorded inhibition at 100 µM put O=C(Nc1ccc(F)cc1F)c1ccc2ncccc2c1 in?
low

Which category does the recorded inhibition at 100 µM put O=C(Nc1ccccn1)c1ccc2ncccc2c1 [Compound 4g, N-(pyridin-2-yl)quinoline-6-carboxamide] in?
middle

====

- targetOfAssay: h-NTPDase8 (Homo sapiens, UniProt Q5MY95)
- Sequence (Q5MY95 1-495): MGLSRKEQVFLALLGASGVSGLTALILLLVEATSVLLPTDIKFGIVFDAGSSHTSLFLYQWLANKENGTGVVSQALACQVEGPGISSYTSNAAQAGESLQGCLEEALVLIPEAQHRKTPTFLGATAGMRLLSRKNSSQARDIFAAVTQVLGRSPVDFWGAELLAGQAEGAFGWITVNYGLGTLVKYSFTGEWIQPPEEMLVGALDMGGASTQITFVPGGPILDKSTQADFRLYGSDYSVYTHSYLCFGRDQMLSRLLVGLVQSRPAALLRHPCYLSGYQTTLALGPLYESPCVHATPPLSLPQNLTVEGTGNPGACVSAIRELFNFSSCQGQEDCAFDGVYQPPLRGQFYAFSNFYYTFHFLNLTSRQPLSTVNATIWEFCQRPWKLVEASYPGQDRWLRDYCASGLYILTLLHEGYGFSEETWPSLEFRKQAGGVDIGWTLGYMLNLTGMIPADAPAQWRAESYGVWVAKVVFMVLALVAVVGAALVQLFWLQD
measuredEndpoint: IC50 (nM)
Write the value in nM as a bare number.

Illustrative cases are given below, each with its answer.
{"compound": "Cc1ccc(CNC(=O)c2ccc3ncccc3c2)cc1", "reportedMeasurement": 990}
{"compound": "O=C(Nc1ccccc1I)c1ccc2ncccc2c1 [Compound 4h, N-(2-iodophenyl)quinoline-6-carboxamide]", "reportedMeasurement": 3290}
{"compound": "Nc1c(S(=O)(=O)O)cc(Nc2ccc(Nc3nc(Cl)nc(Nc4cccc(S(=O)(=O)O)c4)n3)c(S(=O)(=O)O)c2)c2c1C(=O)c1ccccc1C2=O [Reactive blue 2, reference compound]", "reportedMeasurement": 101000}

So, O=C(NCc1ccc(F)cc1)c1ccc2ncccc2c1 ? Its IC50 was 440

====

Here the recorded pIC50 is given for each entry.
- targetOfAssay: h-e5’NT (Homo sapiens)
- Sequence (P21589 27-574): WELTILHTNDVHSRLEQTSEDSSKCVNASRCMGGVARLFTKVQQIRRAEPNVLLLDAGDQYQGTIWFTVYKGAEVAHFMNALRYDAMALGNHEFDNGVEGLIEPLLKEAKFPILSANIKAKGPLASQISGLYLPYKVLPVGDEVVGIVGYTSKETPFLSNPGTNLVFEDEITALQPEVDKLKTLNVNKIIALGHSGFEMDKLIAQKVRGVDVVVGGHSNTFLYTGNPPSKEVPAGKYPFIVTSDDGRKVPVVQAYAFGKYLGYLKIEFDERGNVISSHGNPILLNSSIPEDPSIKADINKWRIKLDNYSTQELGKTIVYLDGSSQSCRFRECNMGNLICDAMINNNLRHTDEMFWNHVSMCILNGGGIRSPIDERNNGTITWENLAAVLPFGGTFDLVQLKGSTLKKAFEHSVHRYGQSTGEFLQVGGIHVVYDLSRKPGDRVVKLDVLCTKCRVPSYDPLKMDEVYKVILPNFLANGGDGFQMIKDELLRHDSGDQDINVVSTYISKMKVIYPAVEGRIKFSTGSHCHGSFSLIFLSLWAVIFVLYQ
Field pIC50 (float): negative decimal logarithm of the concentration in molar.

{"molecule": "Cc1ccc(C(=O)Nc2ccc(S(=O)(=O)O)c3cc(S(=O)(=O)O)cc(S(=O)(=O)O)c23)cc1NC(=O)c1cccc(NC(=O)Nc2cccc(C(=O)Nc3cc(C(=O)Nc4ccc(S(=O)(=O)O)c5cc(S(=O)(=O)O)cc(S(=O)(=O)O)c45)ccc3C)c2)c1 [Suramin, reference compound]", "targetOfAssay": "h-e5’NT (Homo sapiens)", "pIC50": 4.38}
{"molecule": "O=C(Nc1ccccn1)c1ccc2ncccc2c1 [Compound 4g, N-(pyridin-2-yl)quinoline-6-carboxamide]", "targetOfAssay": "h-e5’NT (Homo sapiens)", "pIC50": 6.47}
{"molecule": "O=C(NCc1ccc(Cl)cc1Cl)c1ccc2ncccc2c1", "targetOfAssay": "h-e5’NT (Homo sapiens)", "pIC50": 6.36}

Continue with the molecule presented below.
Hey, h-e5’NT (Homo sapiens) data for O=C(NCc1ccc(Cl)cc1)c1ccc2ncccc2c1 : pIC50 came out at 7.04

====

- targetOfAssay: h-NTPDase2 (Homo sapiens, UniProt Q9Y5L3)
- Sequence (Q9Y5L3 whole entry): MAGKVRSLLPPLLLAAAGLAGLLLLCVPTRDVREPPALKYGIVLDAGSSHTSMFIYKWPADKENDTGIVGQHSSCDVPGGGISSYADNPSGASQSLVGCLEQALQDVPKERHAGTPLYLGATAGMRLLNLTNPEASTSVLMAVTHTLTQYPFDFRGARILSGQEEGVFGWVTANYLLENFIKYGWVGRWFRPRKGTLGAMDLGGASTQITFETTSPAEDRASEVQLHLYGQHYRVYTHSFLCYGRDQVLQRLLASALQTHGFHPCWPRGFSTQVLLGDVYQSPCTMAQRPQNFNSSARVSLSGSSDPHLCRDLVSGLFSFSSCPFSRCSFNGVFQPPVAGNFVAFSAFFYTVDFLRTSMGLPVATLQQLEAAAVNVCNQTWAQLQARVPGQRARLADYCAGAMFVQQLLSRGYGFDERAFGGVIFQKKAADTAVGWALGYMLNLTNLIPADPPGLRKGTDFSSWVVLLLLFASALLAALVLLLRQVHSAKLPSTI
- assayProcedure: h-NTPDase activity assay
- Type: biochemical
- testParameters: read-out: % Inhibition h-NTPDase2
measuredEndpoint: inhibition at 100 µM (%)
Write the value in % as a bare number.

Illustrative cases are given below, each with its answer.
{"molecule": "O=C(Nc1ccc(I)cc1)c1ccc2ncccc2c1 [Compound 4k, N-(4-Iodophenyl)quinoline-6-carboxamide]", "measuredEndpoint": "inhibition at 100 µM", "unit": "%", "reportedMeasurement": 18.6}
{"molecule": "O=C(NCc1ccc(Cl)cc1Cl)c1ccc2ncccc2c1", "measuredEndpoint": "inhibition at 100 µM", "unit": "%", "reportedMeasurement": 26.2}
{"molecule": "COc1ccc(CNC(=O)c2ccc3ncccc3c2)c(OC)c1", "measuredEndpoint": "inhibition at 100 µM", "unit": "%", "reportedMeasurement": 39.6}
{"molecule": "O=C(Nc1ccccn1)c1ccc2ncccc2c1 [Compound 4g, N-(pyridin-2-yl)quinoline-6-carboxamide]", "measuredEndpoint": "inhibition at 100 µM", "unit": "%", "reportedMeasurement": 33.9}

So, O=C(NCc1ccc(F)cc1)c1ccc2ncccc2c1 ? Its inhibition at 100 µM was 26.2

So, Cc1ccc(CNC(=O)c2ccc3ncccc3c2)cc1 ? Its inhibition at 100 µM was 68.4

So, O=C(Nc1ccccc1I)c1ccc2ncccc2c1 [Compound 4h, N-(2-iodophenyl)quinoline-6-carboxamide] ? Its inhibition at 100 µM was 28.3

So, O=C(Nc1c(F)cccc1F)c1ccc2ncccc2c1 ? Its inhibition at 100 µM was 80.1

So, O=C(Nc1ccc(F)cc1F)c1ccc2ncccc2c1 ? Its inhibition at 100 µM was 36.4

So, Cc1ccc(F)cc1NC(=O)c1ccc2ncccc2c1 ? Its inhibition at 100 µM was 41.2
